system: MDR1; experiment: Permeability across apical to basolateral side in pig LLC-PK1 cells transfected with MDR1; assay type: ADME, cell-based, Sus scrofa; details: read-out: permeability
RECORDED ENDPOINT: Papp A→B (×10⁻⁶ cm/s)

smiles_representation=CC(C)c1cccc2c1CC(=O)NS(=O)(=O)c1cnn(c1)C1(CCOCC1)COc1cc-2ccn1 recorded_endpoint="Papp A→B" measure_unit="×10⁻⁶ cm/s" recorded_result=0.55

a = CC(C)c1c(F)ccc2c1CC(=O)NS(=O)(=O)c1cn(nc1F)C(C)(C)COc1cc-2ccn1
b = CC(C)c1cc(F)cc2c1CC(=O)NS(=O)(=O)c1cnn(c1)C(C)(C)COc1cc-2ccn1
c = COc1cc(-c2cc(F)cc(C(C)C)c2CC(=O)NS(=O)(=O)c2cnn(C3CC3)c2)ccn1
Write the entries in order, lowest recorded Papp A→B first. Sort and list the labels as requested. c, b, a
(c: 0.17 ×10⁻⁶ cm/s, b: 0.39 ×10⁻⁶ cm/s, a: 0.57 ×10⁻⁶ cm/s)

* * *

assay: Inhibition of NLRP3 inflammasome activation mediated pyroptosis in LPS-stimulated human THP-1 cells preincubated for 3 hrs followed by nigericin addition and measured after 1 hrs by resazurin dye based assay; assay type: cell-based
Catalogue of compounds with associated pIC50
The quantity pIC50 is defined as the negative base-10 logarithm of the molar concentration.

pIC50 reported for this compound CC(C)c1cccc2c1CC(=O)NS(=O)(=O)c1nn(cc1F)C(C)(C)COc1cc-2ccn1 : 6.32

pIC50 reported for this compound CC(C)n1ccc(S(=O)(=O)NC(=O)Nc2c(-c3ccnc(OC4CCN(C)CC4)c3)ccc3c2CCC3)n1 : 7.34

pIC50 reported for this compound COc1cc(-c2ccc3c(c2NC(=O)NS(C)(=O)=O)CCC3)ccn1 : 5.99

pIC50 reported for this compound O=C1Nc2c(ccc3c2CCC3)-c2ccnc(c2)OCCn2ccc(n2)S(=O)(=O)N1 : 7.20

pIC50 reported for this compound CC(C)c1cc(F)cc2c1CC(=O)NS(=O)(=O)c1cnn(c1)C(C)(C)COc1cc-2ccn1 : 7.12

* * *

Catalogue of compounds with associated IC50
test: Inhibition of NLRP3 inflammasome activation mediated pyroptosis in LPS-stimulated human THP-1 cells preincubated for 3 hrs followed by nigericin addition and measured after 1 hrs by resazurin dye based assay; assay type: cell-based
Express your answer in nM, writing the number without its unit.

IC50 reported for this compound CC(C)c1c(F)c(F)cc2c1CC(=O)NS(=O)(=O)c1cnn(c1)C(C)(C)COc1cc-2ccn1 : 14

IC50 reported for this compound CC(C)c1cc(F)cc2c1CC(=O)NS(=O)(=O)c1cnn(c1)C(C)(CO)COc1cc-2ccn1 (centres undefined) : 83

IC50 reported for this compound CC(C)c1cccc2c1CC(=O)NS(=O)(=O)c1cnn(c1)C1(CCCC1)COc1cc-2ccn1 : 105

* * *

assay: Protein binding in human plasma assessed as unbound fraction at 5 uM incubated for 4 hrs by UPLC-MS analysis; assay type: ADME, cell-free
RECORDED ENDPOINT: fraction unbound at 4 h, 5 µM

Below: 2 compounds and their reported fraction unbound at 4 h, 5 µM.
smiles_representation=CC(C)c1c(F)ccc2c1CC(=O)NS(=O)(=O)c1cn(nc1F)C(C)(C)COc1cc-2ccn1 recorded_result=0.023
smiles_representation=CC(C)c1cccc2c1CC(=O)NS(=O)(=O)c1cnn(c1)C1(CCOCC1)COc1cc-2ccn1 recorded_result=0.042

a = COc1cc(-c2cc(F)cc(C(C)C)c2CC(=O)NS(=O)(=O)c2cnn(C3CC3)c2)ccn1
b = CC(C)c1cc(F)cc2c1CC(=O)NS(=O)(=O)c1cnn(c1)C(C)(C)COc1cc-2ccn1
Select the item whose fraction unbound at 4 h, 5 µM value is smaller, choosing between a and b . State the label of the item chosen. a
